Values were extracted from patent US20260183434A1.

# Test system: HCT116
# run.description: In vitro tracer uptake (gamma counter) in HCT116 senescence cell model
# Assay type: cell-based
# condition.set: control HCT116 cells; 1×10^6 cells, 0.74 MBq tracer, 40 min
measure.name: Uptake in % ID per million cells, HCT116 (cntrl) (% ID per million cells)
Please reply with the bare figure in % ID per million cells and do not write the unit itself.

Examples with their reported Uptake in % ID per million cells, HCT116 (cntrl) follow.
>>> df
                                   molecule     val
0  OC[C@H]1O[C@@H](Oc2ccc(NCCC[18F])cc2COc2c(F)c(F)cc(F)c2F)[C@H](O)[C@@H](O)[C@H]1O [[^18F]ADTFPBGal]   1.564
1  OC[C@H]1O[C@@H](Oc2ccc(N3CCN(CCC[18F])CC3)cc2)[C@H](O)[C@@H](O)[C@H]1O [[^18F]PIPGal]  0.1219
2  O=[N+]([O-])c1ccc(OCc2cc(NCCC[18F])ccc2O[C@@H]2O[C@H](CO)[C@H](O)[C@H](O)[C@H]2O)cc1 [[^18F]NO2BGal]  0.5052
3  OC[C@H]1O[C@@H](Oc2cc([18F])ccc2COc2c(F)c(F)cc(F)c2F)[C@H](O)[C@@H](O)[C@H]1O [[^18F]TFPBGal]   4.745

Would you kindly look at the next entry?
Any idea what Uptake in % ID per million cells, HCT116 (cntrl) was measured for OC[C@H]1O[C@@H](Oc2cccnc2[18F])[C@H](O)[C@@H](O)[C@H]1O [[^18F]FPyGal, reference compound] ?
0.3438
